assay: Toxicity Test: acute oral LD50; settings: rat, in vivo, corn oil, fasted male 7-week old rats, after 7 days
Measurement Name: LD50 at 168 h

Some molecules with known LD50 at 168 h results, for comparison:
Molecule: C#CCc1ccc(COC(=O)C2C(/C=C(\Cl)C(F)(F)F)C2(C)C)o1 (stereo not drawn) [C, reference compound]
LD50 at 168 h: < 100 mg/kg

Molecule: Cc1ccc(COC(=O)[C@@H]2[C@H](/C=C(\Cl)C(F)(F)F)C2(C)C)o1 (relative stereo)
LD50 at 168 h: 300 mg/kg

Input: Which measured LD50 at 168 h value corresponds to CC1(C)C(/C=C(\Cl)C(F)(F)F)C1C(=O)OCc1coc(Cc2ccccc2)c1 (stereo not drawn) [A, reference compound] ?
Output: < 50 mg/kg
